Test system: biotinyl-Ile-oxazolone
assay-name: self-aminoacylation, catalytic enhancement (BIO) (fold over background); higher = more active; k-Seq, kA / k0A0; sequences stand for … in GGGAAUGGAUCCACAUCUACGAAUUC…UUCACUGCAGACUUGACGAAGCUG
This sample holds only a part of the variants without activity.
measurement-name: self-aminoacylation
Please reply with the value in numeric form only.

**Query** Need self-aminoacylation of CAGUUUGCUAAUAGUCGCACG [Fam3.1 aminoacylation ribozyme variant] , thanks.
**Result** 1.3

**Query** Another: AUGCUUCAAACAAUCGGUCUG [Fam1A.1 aminoacylation ribozyme variant]
**Result** 2.25

**Query** Another: AUUACCCUGGUCAUCGAUAGA [Fam2.1 aminoacylation ribozyme variant]
**Result** 0.721

**Query** Another: AUUACCCUGGUCCUCGAGUGC [Fam2.1 aminoacylation ribozyme variant]
**Result** 0.969

**Query** Another: AUCCCCCUAGGUCAUCGGGUG [Fam2.2 aminoacylation ribozyme variant]
**Result** 8.62

**Query** Another: ACGUUUGCUUAUAGUCGCAAG [Fam3.1 aminoacylation ribozyme variant]
**Result** 1.32

**Query** Another: AUUCAUCUAGGUCCUCGGGUG [Fam2.2 aminoacylation ribozyme variant]
**Result** 4

**Query** Another: CCACACUUCAAUCAAUCGAUC [Fam1B.1 aminoacylation ribozyme variant]
**Result** 0.523

**Query** Another: AUUGCCCUAGGUCAUCGGGUG [Fam2.2 aminoacylation ribozyme variant]
**Result** 5.44
